The reported numbers originate from PubChem BioAssay (EPA / NIEHS).

# ASSAY SYSTEM: Peroxisome proliferator-activated receptor gamma (Homo sapiens) (UniProt P37231)
# Sequence (P37231 whole entry, looked up): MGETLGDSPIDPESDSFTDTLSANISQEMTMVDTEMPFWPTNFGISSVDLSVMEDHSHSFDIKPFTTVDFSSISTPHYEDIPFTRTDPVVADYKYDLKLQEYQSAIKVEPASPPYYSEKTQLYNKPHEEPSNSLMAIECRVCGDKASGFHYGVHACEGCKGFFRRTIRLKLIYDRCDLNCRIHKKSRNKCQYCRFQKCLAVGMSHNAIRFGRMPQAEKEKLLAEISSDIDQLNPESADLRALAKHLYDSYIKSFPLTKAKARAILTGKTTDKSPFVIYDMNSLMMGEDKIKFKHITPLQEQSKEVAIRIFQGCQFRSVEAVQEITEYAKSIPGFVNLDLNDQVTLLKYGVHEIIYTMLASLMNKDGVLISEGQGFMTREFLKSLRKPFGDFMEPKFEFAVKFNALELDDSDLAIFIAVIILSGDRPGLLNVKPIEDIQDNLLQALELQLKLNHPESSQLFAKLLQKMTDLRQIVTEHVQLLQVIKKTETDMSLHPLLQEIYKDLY
# MEASUREMENT NOTES: ATG_PPARg_TRANS: Attagene TRANS-FACTORIAL HepG2 Assay for human Peroxisome Proliferator-activated Receptor-gamma (PPARg) (AID 2283007)
Records with an inconclusive call do not appear. Active and inactive are the calls of the source. The calls were made as follows: active = hit-call score of the fitted dose curve at least 0.9, where 1 is the maximum; inconclusive = response in the unintended direction; inactive = score below 0.9.
Outcomes you can answer with include only these: yes (1) (active), no (0) (inactive)

Record excerpt, results attached:
CCCCCCCCn1sccc1=O    yes (1)
O=C1CCCO1    no (0)
O=P(OCCCl)(OCCCl)OCCCl    no (0)
Nc1cc(Cl)cc(C(=O)O)c1Cl    no (0)
Brc1ccc(Oc2ccccc2)cc1    no (0)
CCCCCCCCOC(=O)c1ccc(C(=O)OCCCCCCCC)c(C(=O)OCCCCCCCC)c1    no (0)

# fetch the recorded call for O=[N+]([O-])c1ccc(Oc2ccc(Cl)cc2Cl)cc1 here
yes (1)

# fetch the recorded call for CS(=O)(=O)NC(=O)c1cc(Oc2ccc(C(F)(F)F)cc2Cl)ccc1[N+](=O)[O-] here
yes (1)

====

# MEASUREMENT NOTES: APR_HepG2_StressKinase_72hr: Apredica 72-hour HepG2 Assay for Stress Kinase (AID 2282921)
# ASSAY SETUP: HepG2 stress kinase (phospho-c-Jun) imaging, actives raise or lower the signal
Calls of active or inactive are those of the source. How the source made its calls: active means hit-call score of the fitted dose curve at least 0.9, where 1 is the maximum; inactive means score below 0.9.
Outcomes you can answer with include only these: active, inactive

Record excerpt, results attached:
Cc1ccc([N+](=O)[O-])cc1    inactive
c1ccc(NNc2ccccc2)cc1    inactive
Brc1ccc(Oc2ccccc2)cc1    inactive
CCCCOC(=O)c1ccccc1C(=O)OCc1ccccc1    inactive
O=[N+]([O-])C(Br)(CO)CO    inactive
CN(C)c1ccc(C(=O)c2ccc(N(C)C)cc2)cc1    active
[As]#[In]    inactive
O=C1CCCO1    inactive
CC(C)(C)OOC(C)(C)CCC(C)(C)OOC(C)(C)C    inactive
COP(=S)(OC)SCN1C(=O)c2ccccc2C1=O    inactive

# fetch the recorded call for Cc1ccc(N)c(N)c1 here
inactive

# fetch the recorded call for C[N+](C)(C)CC1CO1 (stereo not drawn) here
inactive

# fetch the recorded call for O=P(OCCCl)(OCCCl)OCCCl here
inactive

====

# MEASUREMENT NOTES: BSK_SAg_Proliferation: Cell Proliferation Assessment in the BioMAP Diversity Plus: SAg Assay (AID 2283095);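 also: relative cell number as total protein by SRB absorbance in sub-confluent culture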
# ASSAY SETUP: primary human HUVEC with PBMC
The source made the active and inactive calls. The calls were made as follows: active = hit-call score of the fitted dose curve at least 0.9, where 1 is the maximum; inactive = score below 0.9.
ENDPOINT NAME: outcome

COP(=S)(OC)SCN1C(=O)c2ccccc2C1=O    inactive
CCCCCCCCCCCCCN1CC(C)OC(C)C1 (stereo not drawn)    inactive
N#CC(Br)(Br)C(N)=O    inactive

====

# Read-out: MicroRNA 122 (MIR122), gene 406906
# MEASUREMENT NOTES: LTEA_HepaRG_MIR122: Life Technologies and Expression Analysis (LTEA) Assay for MicroRNA 122 (MIR122) using HepaRG (AID 2283516); also: the transcript read is the microRNA miR-122
# ASSAY SETUP: mRNA level, 48 h; actives raise or lower the signal
The source made the active and inactive calls. The calls were made as follows: active = hit-call score of the fitted dose curve at least 0.9, where 1 is the maximum; inactive = score below 0.9.
Outcomes you can answer with include only these: 1.0 = active, 0.0 = inactive

Record excerpt, results attached:
CCCCOC(=O)c1ccccc1C(=O)OCc1ccccc1    0.0
[As]#[In]    0.0
CCC(C)c1ccc(O)cc1 (stereo unspecified)    0.0
O=P(OCCCl)(OCCCl)OCCCl    0.0
Nc1ccc(N=Nc2ccccc2)cc1    1.0

--- query ---
# fetch the recorded call for CNC(=O)Oc1cccc2c1OC(C)(C)C2 here
0.0
